System: DMS-114
Assay: NCI tumour cell line growth inhibition, 48 h
Active and inactive are the calls of the source. No stated cut-off is given here; in the data, active = GI50 up to about 1.1 µM and inactive = higher.
test.readout: GI50

molecule	GI50
CN(c1n[n+]2c(-c3ccccc3)csc2s1)c1n[n+]2c(-c3ccccc3)csc2s1	59.6 µM (inactive)
Cc1ccccc1NC(=O)C(=O)CC(=O)c1sc(-n2nc(-c3ccccc3)cc2-c2ccccc2)nc1C	> 100 µM (inactive)
O=C1CC(c2n[nH]c3ccccc23)C(=O)N1c1ccccc1 (stereo not given)	> 100 µM (inactive)
O=C1/C(=C/c2ccccc2)CCCC/C1=C\c1ccccc1	42.5 µM (inactive)

With those in mind, consider the next molecule.
Read the entry `O=C1C(=O)N(c2cc(Cl)ccc2Cl)C(=O)C(=O)C1c1nc2ccccc2s1` and write its reported GI50.
> 100 µM (inactive)
